Where these numbers come from: patent US20230295106A1

target: 5-HT2A (Homo sapiens, UniProt P28223); assay: Serotonin 5-HT2A in vitro cellular IPOne agonism assay (HTRF); assay type: cell-based; parameters: host or cells: CHO-K1; settings: read-out: 5-HT2A IPOne Agonism Activity; CHO-K1 cells, 60 min at 37° C.
Sequence (P28223 whole entry): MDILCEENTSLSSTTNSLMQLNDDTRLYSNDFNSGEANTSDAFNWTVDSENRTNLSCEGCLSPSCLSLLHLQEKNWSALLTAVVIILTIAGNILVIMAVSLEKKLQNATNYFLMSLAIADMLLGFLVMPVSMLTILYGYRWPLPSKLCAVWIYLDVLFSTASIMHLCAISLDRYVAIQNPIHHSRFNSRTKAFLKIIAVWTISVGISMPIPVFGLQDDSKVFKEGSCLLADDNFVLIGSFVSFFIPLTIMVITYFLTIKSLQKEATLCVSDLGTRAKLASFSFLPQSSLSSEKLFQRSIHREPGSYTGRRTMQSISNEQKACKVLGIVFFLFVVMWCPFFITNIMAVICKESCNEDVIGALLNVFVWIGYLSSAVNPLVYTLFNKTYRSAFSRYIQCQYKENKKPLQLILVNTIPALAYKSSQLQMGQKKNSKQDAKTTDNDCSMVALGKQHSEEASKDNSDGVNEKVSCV
pEC50: −log10 of the molar value.

compound	targetOrSystem	pEC50
CN(C)C1Cc2cccc3ccn(c23)C1 (single isomer, unassigned)	5-HT2A (Homo sapiens, UniProt P28223)	< 5.00

###

molecular target: 5-HT2A (Homo sapiens, UniProt P28223); experiment: Serotonin 5-HT2A in vitro radioligand binding competition assay ([3H]-DOI); set-up: Epics Therapeutics S.A. (Belgium) FAST-0505B; host or cells: membrane extracts
pIC50: −log10 of the molar value.
measuredMetric: pIC50

compound	targetOrSystem	result
NC1Cc2cccc3[nH]cc(c23)C1 (stereo not drawn) [Compound 27, 1,3,4,5-tetrahydrobenzo[cd]indol-4-amine]	5-HT2A (Homo sapiens, UniProt P28223)	5.00 to 6.00
NC1Cc2cc(F)cc3ccn(c23)C1 (stereo not drawn)	5-HT2A (Homo sapiens, UniProt P28223)	5.00 to 6.00
NC1Cc2c(Cl)ccc3ccn(c23)C1 (stereo not drawn)	5-HT2A (Homo sapiens, UniProt P28223)	5.00 to 6.00
NC1Cc2cc(Cl)cc3ccn(c23)C1 (stereo not drawn)	5-HT2A (Homo sapiens, UniProt P28223)	5.00 to 6.00
NC1Cc2cccc3ccn(c23)C1 (stereo not drawn)	5-HT2A (Homo sapiens, UniProt P28223)	5.00 to 6.00
COc1cc2c3c(ccn3CC(N)C2)c1 (stereo not drawn)	5-HT2A (Homo sapiens, UniProt P28223)	< 5.00
NC1Cc2c(F)ccc3ccn(c23)C1 (stereo not drawn)	5-HT2A (Homo sapiens, UniProt P28223)	< 5.00
CCN(CC)C1Cc2cccc3ccn(c23)C1 (stereo not drawn)	5-HT2A (Homo sapiens, UniProt P28223)	6.00 to 7.00
CN(C)C1Cc2cccc3ccn(c23)C1 (single isomer, unassigned)	5-HT2A (Homo sapiens, UniProt P28223)	6.00 to 7.00

###

target: 5-HT2A (Homo sapiens, UniProt P28223); assay: Serotonin 5-HT2A in vitro radioligand binding competition assay ([3H]-DOI); parameters: Epics Therapeutics S.A. (Belgium) FAST-0505B; host or cells: membrane extracts; conditions: read-out: 5-HT2A Radioligand Binding Activity; competition with [3H]-DOI, membrane extracts

compound	IC50
CN(C)C1Cc2cccc3ccn(c23)C1 (single isomer, unassigned)	101 to 1000 nM

###

EC50 by entry:
target: 5-HT2A (Homo sapiens, UniProt P28223); experiment: Serotonin 5-HT2A in vitro cellular IPOne agonism assay (HTRF); assay type: cell-based; design: host or cells: CHO-K1; settings: 5-HT2A IPOne Agonism Activity, CHO-K1 cells, 60 min at 37° C.
measuredMetric: EC50

compound	targetOrSystem	result
CCN(CC)C(=O)[C@@H]1C=C(c2cccc(OC)c2)CN(C)C1 (single isomer, unassigned) [Compound 9]	5-HT2A (Homo sapiens, UniProt P28223)	10 to 100 nM
CCN(CC)C(=O)[C@@H]1C=C(c2cc(OC)cc(OC)c2)CN(C)C1 (single isomer, unassigned) [Compound 5]	5-HT2A (Homo sapiens, UniProt P28223)	10 to 100 nM
CCN(CC)C(=O)[C@@H]1C=C(c2ccccc2OC)CN(C)C1 (single isomer, unassigned) [Compound 8]	5-HT2A (Homo sapiens, UniProt P28223)	101 to 1000 nM
CCN(CC)C(=O)[C@@H]1C=C(c2cccc(OC)c2)CN(C)C1 (single isomer, unassigned) [Compound 10]	5-HT2A (Homo sapiens, UniProt P28223)	101 to 1000 nM
CCN(CC)C(=O)[C@@H]1C=C(c2ccccc2OC)CN(C)C1 (single isomer, unassigned) [Compound 7]	5-HT2A (Homo sapiens, UniProt P28223)	10 to 100 nM
CCN(CC)C(=O)[C@@H]1C=C(c2cc(OC)cc(OC)c2)CN(C)C1 (single isomer, unassigned) [Compound 6]	5-HT2A (Homo sapiens, UniProt P28223)	101 to 1000 nM
